- MEASURED_TARGET: mAChE (Mus musculus, UniProt P21836)
- Sequence (P21836 32-614): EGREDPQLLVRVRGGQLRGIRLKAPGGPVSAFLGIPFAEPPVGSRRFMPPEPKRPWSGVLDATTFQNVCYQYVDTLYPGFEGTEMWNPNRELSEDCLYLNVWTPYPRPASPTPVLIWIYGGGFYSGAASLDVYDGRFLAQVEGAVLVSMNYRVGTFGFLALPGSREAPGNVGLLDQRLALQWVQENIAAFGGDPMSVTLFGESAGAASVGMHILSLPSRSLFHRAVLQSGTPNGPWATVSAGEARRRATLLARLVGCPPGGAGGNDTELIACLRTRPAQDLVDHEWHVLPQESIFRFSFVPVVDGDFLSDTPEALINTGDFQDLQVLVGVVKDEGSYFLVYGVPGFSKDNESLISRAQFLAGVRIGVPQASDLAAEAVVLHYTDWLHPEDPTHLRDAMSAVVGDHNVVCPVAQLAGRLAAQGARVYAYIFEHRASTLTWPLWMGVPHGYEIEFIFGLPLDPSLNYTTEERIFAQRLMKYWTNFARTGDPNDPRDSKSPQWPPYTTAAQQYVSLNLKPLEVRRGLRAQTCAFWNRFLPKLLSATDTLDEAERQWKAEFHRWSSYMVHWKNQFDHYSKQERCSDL
- PROCEDURE_DETAILS: mAChE inhibition, IC50 (Ellman assay)
- STUDY_CONDITIONS: IC50 mAChE / IC50 AgAChE1
RESULT_TYPE: S.R. (selectivity ratio) mAChE vs AgAChE1

>  <SMILES_INPUT>
CCN1CCN(C2CCN(C(=O)COc3ccc(-c4ccc(OC)cc4)cc3)CC2)CC1

>  <RESULT_NUMBER>
73

$$$$
>  <SMILES_INPUT>
COc1ccc(NC(=S)NCCN2CCC(C)CC2)cc1Cl

>  <RESULT_NUMBER>
27

$$$$
>  <SMILES_INPUT>
O=C(COc1ccc(-c2ccccc2)cc1)NCCCN1CCCCC1

>  <RESULT_NUMBER>
6

$$$$
>  <SMILES_INPUT>
COc1ccccc1NC(=S)NCCN(C)C

>  <RESULT_NUMBER>
31

$$$$
